test system: Escherichia coli; conditions: Concentration 32 ug.mL-1; ASSAY_TEST Inhibition of Bacterial Growth; detection method Absorption (OD600); MEDIA CAMHB; plate type 384well; NBS; CORNING #3640; time 18 hr
Description: Antibacterial activity against Escherichia coli ATCC 25922 (CO-ADD:GN_001); MIC in CAMBH media using NBS plates, by OD(600)
Measured potencies and affinities stand elsewhere.
Entries and their measured Inhibition follow.
Measured Endpoint: Inhibition

• NC(=O)N/N=C/c1c[nH]c2ccccc12 = 5.19%
• C#CCN(C)c1nc(NCCC2CCN(Cc3ccccc3)CC2)c(C#N)cc1C#N.Cl = -3.04%
• C#CCNc1cccc(F)n1 = -22.48%
• O=C(N/N=C/c1ccc([N+](=O)[O-])cc1)c1cc2ccccc2[nH]1 = 10.51%
• N#CC1=C(N)Oc2c(ccc3ccccc23)C1c1ccccc1 (centres undefined) = -4.89%
• Cc1ccc(CNNC(=O)c2cc3ccccc3n2C)cc1 = -8.9%
• COc1ccccc1[C@H]1c2c(ccc3ccccc23)O/C(=N\Br)[C@@]1(Br)C#N = 14.2%
• COc1ccc(C2C(C#N)=C(N)Oc3c2ccc2ccccc32)cc1OC (centres undefined) = -16.13%
• CCC(Cc1ccccc1)NNC(=O)c1cc2ccccc2[nH]1 (centres undefined) = -1.51%
• Cl.Nc1c2c(nc3c1C(c1c(Cl)cccc1Cl)c1ccc4ccccc4c1O3)CCCC2 (centres undefined) = -2.79%
• Cc1nc2c(cc1C#N)c(N)nn2C = 0.08%
• C#CCNc1ccc(Cl)nn1 = -28.17%
• C#CCNc1nc(N)c(C#N)c(-c2ccccc2)c1C#N = 15.49%
• N#C/C(=C\c1ccccc1)C(=O)c1ccccc1 = 8.34%
• Cc1ccc2nc(Cl)c(/C=N/C(C)(C)C)cc2c1 = 12.92%
• OCc1c(-c2ccc(Br)cc2)nc2ccccn12 = 0.77%
• COc1nc(N)c(C#N)c(-c2ccccc2)c1C#N = -3.07%
• CCOC(=O)C1=C(C)OC(N)=C(C#N)C1c1ccccc1 (centres undefined) = -7.58%
• C#CCn1c(N)c(C#N)c2cc(O)ccc21 = -2.03%

* * *

Entries and their measured Inhibition follow.
test system: Escherichia coli; conditions: Concentration 32 ug.mL-1; ASSAY_TEST Inhibition of Bacterial Growth; detection method Absorption (OD600); MEDIA CAMHB; plate type 384well; NBS; CORNING #3640; time 18 hr
Results with a measured potency or affinity are listed apart.
Measured Endpoint: Inhibition (%)

• CS(=O)(=O)O[C@H]1CC[C@H](OS(C)(=O)=O)CC1 = -5.59
• COc1ccc(CNNC(=O)c2cc3ccccc3[nH]2)cc1O = 2.63
• COc1cc(CCC(N)=O)ccc1O = 5.11
• CC(C)(C)OC(=O)N[C@H]1CC[C@H](O)CC1 = -6.43
• O=C(O)/C(=C\c1ccccc1)NC(=O)c1ccccc1 = 10.16
• O=C(Cc1c[nH]c2ccccc12)NN=Cc1ccccc1 = -3.03
• COc1ccc(-c2cc(-c3ccccc3)c(C#N)c(N)n2)cc1 = -23.38
• NNC(=O)C1(NC(=O)c2ccccc2)CC1c1cccc(O)c1 (configuration not stated) = 5.57
• Cc1cc(Br)cc(C)c1NC=C(C#N)C#N = 12.6
• N#Cc1c(N)nc(NCc2ccccc2)c(C#N)c1-c1ccccc1 = -5.8
• Cn1c(C(=O)O)cc2ccccc21 = 5.49
• COc1ccccc1C1C(C#N)=C(N)Oc2[nH]nc(C)c21 (configuration not stated) = 14.43
• Cn1ccnc1C1c2ccc3ccccc3c2Oc2nc3c(c(N)c21)CCCCC3 (configuration not stated) = -12.42
• CN1C/C(=C\Cl)n2c1c(C#N)c(-c1ccccc1)c(C#N)c2=O = -33.76
• Cc1nc2c3cnn(-c4ccccc4)c3nc(C)n2n1 = 10.35
• COc1ccc(C2c3c(ccc4ccccc34)OC(=N)C2(Br)C#N)cc1OC (configuration not stated) = -16.19
• CC1=C(C(=O)O[C@@H]2C[C@@]3(C)CC[C@H]2C3(C)C)C(c2ccccc2)C(C#N)=C(N)O1 (some centres not stated) = 16.17
• O=C(O)c1c[nH]c2ccccc12 = -2.29
• CC(C)(C)OC(=O)Nc1ccccn1 = -0.38
• COC1(N)Oc2ccc3ccccc3c2C(c2ccccc2)C1(Br)C#N (configuration not stated) = 20.49
• Cl.ClCCCC1CCNCC1 = 19.24
• Cc1nc(Nc2ccccc2)c2cnn(-c3ccccc3)c2n1 = 6.44
• N#Cc1cc(C#N)c(N2CCCC2)nc1N1CCCC1 = 8.77
• COc1nc2ccccc2cc1C=O = 18.39
• Nc1c2c(nc3c1C(c1ccccc1)c1ccc4ccccc4c1O3)CCCC2 (configuration not stated) = -5.04
• C#CCN(C)Cc1cc2cc(OCc3ccc(OC)c4ncccc34)ccc2n1C = -18.67
• N#Cc1cc(Br)cc(Br)c1N = 14.62

* * *

test system: Escherichia coli; details: Concentration 32 ug.mL-1; ASSAY_TEST Inhibition of Bacterial Growth; detection method Absorption (OD600); MEDIA CAMHB; plate type 384well; NBS; CORNING #3640; time 18 hr
Measured potencies and affinities stand elsewhere.
Entries and their measured Inhibition follow.
Measured Endpoint: Inhibition (%)

* ClCCC1CCN(Cc2ccccc2)CC1 | 16.74
* C#CCN(C)c1cc(C)nc(C)n1 | -8.55
* C#CCN(C)Cc1cc2cc(OCOc3ccc4c(c3)cc(CN(C)CC#C)n4C)ccc2n1C | -10.88
* N#Cc1cc2c(N)c3c(nc2nc1N1CCCCC1)CCCC3 | 3.13
* CC1CC(=O)Nc2c1c(Cl)nc1nc3c(c(N)c21)CCCC3 (centres undefined) | -17.09
* CC(C)NNC(=O)Cc1c[nH]c2ccccc12 | 9.11
* Cc1nc(NCc2ccccc2)c2cnn(-c3ccccc3)c2n1 | 5.64
* N#Cc1cc(C#N)c(NCCCC2CCN(Cc3ccccc3)CC2)nc1N | -3.28
* N#Cc1c(Cl)nc(Sc2ccccc2)c(C#N)c1-c1ccccc1 | -17.27

* * *

system: Staphylococcus aureus; settings: Concentration 32 ug.mL-1; ASSAY_TEST Inhibition of Bacterial Growth; detection method Absorption (OD600); MEDIA CAMHB; plate type 384well; NBS; CORNING #3640; time 18 hr
Description: Antibacterial activity against Staphylococcus aureus MRSA ATCC 43300 (CO-ADD:GP_020); MIC in CAMBH media, using NBS plates, by OD(600)
Potency and affinity values are given separately.
// label = Fulfilled if Inhibition is not less than 20%, otherwise Not fulfilled

* O=C(N/N=C/Cc1ccccc1)c1cc2ccccc2[nH]1 | Not fulfilled
* CC(C)CC(C)NNC(=O)c1cc2ccccc2[nH]1 (configuration not stated) | Not fulfilled
* C=C1CN(C)c2ncc(C#N)c(=N)n21 | Not fulfilled
* C=C1CNc2c(C#N)c(-c3ccccc3)c(C#N)c(=N)n21 | Not fulfilled
* O=Cc1cc2ccccc2nc1Cl | Not fulfilled
* Nc1c2c(nc3c1C(c1ccc(O)cc1)c1c(ccc4ccccc14)O3)CCCC2 (configuration not stated) | Not fulfilled
* CC#CCN(Cc1ccccc1)c1nc(N)c(C#N)c(-c2ccccc2)c1C#N | Not fulfilled
* Cc1ccc(CNNC(=O)c2c[nH]c3ccccc23)cc1 | Not fulfilled
* Cl.ClCCCC1CCNCC1 | Fulfilled
* NC(=O)c1cc2cc(OCc3ccccc3)ccc2[nH]1 | Fulfilled
* Cc1ccc(C2CC2(N)C(=O)O)cc1.Cl (configuration not stated) | Not fulfilled
* N#Cc1c(-c2ccccc2)c2ccc3ccccc3c2oc1=O | Fulfilled
* COc1ccc(C2c3c(ccc4ccccc34)OC(=N)C2(Br)C#N)cc1 (configuration not stated) | Fulfilled
* C#CCN(C)Cc1cc2cc(OCc3ccc(OC)c4ncccc34)ccc2n1C | Not fulfilled
* CCOC(=O)c1cc2cc(OC(=O)Oc3ccc([N+](=O)[O-])cc3)ccc2[nH]1 | Not fulfilled
* CCOC(=O)C1=C(C)OC(N)=C(C#N)C1c1ccccc1OC (configuration not stated) | Fulfilled
* CCOC(=O)c1cc2cc(OC)ccc2n1C | Not fulfilled
* COc1ccc(C2C(C#N)=C(N)Oc3[nH]nc(C)c32)cc1 (configuration not stated) | Not fulfilled
* COc1ccccc1-c1c(C#N)c(=O)oc2c1ccc1ccccc12 | Fulfilled
* Nc1c2c(nc3c1C(c1ccc([N+](=O)[O-])cc1)c1c(ccc4ccccc14)O3)CCCC2 (configuration not stated) | Not fulfilled
* CC(=O)CC(=O)N1[C@@H]2C[C@H]3CCC2(CS1(=O)=O)C3(C)C | Fulfilled
* CCOC(=O)/C(C#N)=C\c1ccc(C)cc1 | Fulfilled
* C#CCN(C)c1nc(NC2CCN(Cc3ccccc3)CC2)c(C#N)c(-c2ccccc2)c1C#N | Not fulfilled
* CCOc1nc(N)c(C#N)cc1C#N.Cl | Not fulfilled
* N#Cc1c(N)nc2c(c1-c1ccccc1)CN(Cc1ccccc1)CC2 | Not fulfilled
* O=C1OC(c2ccc([N+](=O)[O-])cc2)=NC1=Cc1ccccc1 | Not fulfilled
* CSC1=NC2(CC2c2ccccc2)C(=O)N1 (configuration not stated) | Not fulfilled
* Cc1nc(Nc2ccccc2)c2cnn(-c3ccccc3)c2n1 | Not fulfilled
* NNC(=O)C1(NC(=O)c2ccccc2)CC1c1cccc(O)c1 (configuration not stated) | Not fulfilled
* C/C=C(/C#N)C(=O)OC | Not fulfilled
* C#CCNc1cccc(F)n1 | Fulfilled
* C#CCNc1nc(NC2CCN(Cc3ccccc3)CC2)c(C#N)cc1C#N.Cl | Not fulfilled
* COC1=C(C#N)CCC(=O)N1 | Fulfilled
* N#CC1=C(Cl)Oc2c(ccc3ccccc23)C1c1ccccc1[N+](=O)[O-] (configuration not stated) | Not fulfilled
* Cc1nc2c3c(C)nn(-c4ccccc4)c3ncn2n1 | Not fulfilled
* COc1nc2nc3c(c(N)c2cc1C#N)CN(Cc1ccccc1)CC3 | Not fulfilled
* O=C1SC(SCc2ccccc2)=NC1=Cc1ccc2c(c1)OCO2 | Not fulfilled
* O=C(O)c1cc2ccccc2[nH]1 | Not fulfilled
* N#CC1=C(N)Oc2c(ccc3ccccc23)C1c1c(Cl)cccc1Cl (configuration not stated) | Not fulfilled
* Cn1ccnc1C1c2ccc3cccnc3c2Oc2nc3c(c(N)c21)CCCCC3 (configuration not stated) | Fulfilled
* C#CCNc1ncc(C#N)c(N)n1 | Not fulfilled

Just for reference, ChEMBL document CHEMBL4513135 is where these values come from.
